- Assay Name: qHTS for Inhibitors of TGF-b: Cytotox Counterscreen
- Experimental Parameters: HepG2 CAGA-GFP viability, ATP luminescence, 18 h; series mostly up to 46.1 µM
About 3,100 (0.76%) of roughly 410,000 compounds were called active. The call rests on the fitted dose curve; in most records, active means well fitted cell-killing curve with a large enough effect; inactive means no such curve, though single readings can be large or run the other way. This is one part of a sample in which actives are shown more often than they occur.
Outcomes: label 1 (active), label 0 (inactive)

{"Compound": "Cc1nnnn1/C(=C\\c1ccccc1)C(=O)OCC(=O)N1CC2(C)CC1CC(C)(C)C2 (stereo not given)", "Label": "label 1"}
{"Compound": "Cc1ccc(N2CC(NC(=O)Cc3cccs3)CC2=O)cc1 (stereo not given)", "Label": "label 0"}
{"Compound": "CN(C)c1ccc(/C=C/c2sc3ccccc3[n+]2CCCCBr)cc1", "Label": "label 0"}
{"Compound": "CCN(CC)c1ccc(NC(=O)CN2CCN(CC(=O)Nc3ccc(Cl)cc3)CC2)cc1", "Label": "label 0"}
{"Compound": "O=C(c1ccco1)n1nc(-c2ccc(Cl)cc2)nc1NCc1ccccc1", "Label": "label 0"}
